The entries below are paired with their reported solubility.
- EXPERIMENT_DESCRIPTION: Solubility of the compound at pH 6.8
- Assay type: physicochemical
- CONDITION_NOTES: buffer
Give the value in µg/mL but do not write µg/mL after it.

- TEST_SMILES: "CCCCc1c(C)c(C#N)c2nc3ccccc3n2c1N1CC[C@H](N(C)C)C1"
  REPORTED: 26
- TEST_SMILES: "Cc1c(-c2ccccc2)c(N2CC[C@H](N(C)C)C2)n2nc(C(C)(C)C)nc2c1C#N"
  REPORTED: 16
- TEST_SMILES: "CCCCc1c(C)c(C#N)c2nc(C(C)(C)C)nn2c1N1CC[C@H](N(C)C)C1"
  REPORTED: 146
- TEST_SMILES: "Cc1c(-c2ccccc2)c(N2CC[C@H](N(C)C)C2)n2cc(C(C)(C)C)nc2c1C#N"
  REPORTED: 27
- TEST_SMILES: "Cc1cn2c(N3CC[C@H](N(C)C)C3)c(-c3ccccc3)c(C)c(C#N)c2n1"
  REPORTED: 356

Suppose we examine the compound `Cc1c(-c2ccccc2)c(N2CC[C@H](N(C)C)C2)n2c(nc3ccccc32)c1C#N` ; what solubility value has been reported?
5.3

Origin of measurements: ChEMBL document CHEMBL1212889
